# melting point listing for each entry below
readout: melting point

structureNotation	readout	testValue
O=C(NN=Cc1cccc(F)c1)c1c[nH]c2ccc(OCc3ccccc3)cc2c1=O	melting point	305 °C (dec.)
O=C(NN=Cc1ccc(F)cc1)c1c[nH]c2ccc(OCc3ccccc3)cc2c1=O	melting point	305 °C (dec.)
O=C(NN=Cc1ccc(Cl)cc1)c1c[nH]c2ccc(OCc3ccccc3)cc2c1=O	melting point	329 °C (dec.)
O=C(NN=Cc1cccc(Cl)c1)c1c[nH]c2ccc(OCc3ccccc3)cc2c1=O	melting point	291 °C (dec.)
Cc1cccc(C=NNC(=O)c2c[nH]c3ccc(OCc4ccccc4)cc3c2=O)c1	melting point	310 °C (dec.)
COc1cccc(C=NNC(=O)c2c[nH]c3ccc(OCc4ccccc4)cc3c2=O)c1	melting point	280 °C (dec.)
CSc1ccc(C=NNC(=O)c2c[nH]c3ccc(OCc4ccccc4)cc3c2=O)cc1	melting point	160 °C (dec.)
Cc1ccccc1C=NNC(=O)c1c[nH]c2ccc(OCc3ccccc3)cc2c1=O	melting point	290 °C (dec.)
